The following compounds are listed with their measured growth values.
- Tested on: DU-145 prostate
- Assay method text: NCI-60 one-dose screen, 48 h (100 = growth as untreated, 0 = no growth, -100 = all killed)
- Condition details: 10 µM unless noted
About 83,000 compounds went through this panel and 20% of them were active in at least one assay; those are over-represented in the sample as a whole.
Output spec: scalar in %, unitless text.

Guide cases for growth, answers given:
INSERT INTO measurements (given_smiles, recorded_number) VALUES
  ('O=C(NNC(=O)c1ccc(NC(=O)c2ccccn2)cc1)Nc1ccc([N+](=O)[O-])cc1', 106),
  ('COc1ccc(/C=N/NC(=O)c2ccc(-n3cc(-c4ccccc4)nn3)cc2)cc1OC', 103),
  ('O=S(=O)(Nc1cc(F)cc(Cl)c1)c1ccc(-c2cnc(C3CC3)o2)cc1', 35.6);

# get_value(readout='growth', item= "CC(C)=CCC[C@](C)(O)[C@H]1CC[C@]2(C)[C@@H]1CC[C@@H]1[C@@]3(C)C/C(=C/c4ccco4)C(=O)C(C)(C)[C@@H]3CC[C@]12C" )
113

Query (compound): "CCc1ccccc1-n1c(-c2ccc(OC)cc2)cc(-c2ccc(OC)cc2)c(C#N)c1=O" ; field requested: growth
98.6

Given "COc1ccc(Nc2ncc(Br)c(NCCCNC(=O)C3CCCC3)n2)cc1" , state its recorded growth.
48.9

* * *

- System: UACC-62 melanoma
- Assay method text: NCI-60 one-dose screen, 48 h (100 = growth as untreated, 0 = no growth, -100 = all killed)
- Condition details: 10 µM unless noted
About 83,000 compounds went through this panel and 20% of them were active in at least one assay; those are over-represented in the sample as a whole. Active and inactive are the calls of the source. Rule for the calls: active = growth percent below 10; inactive = the rest.
Measured growth, listed per entry.

For orientation, consider the following solved cases.
INSERT INTO assay_data (given_smiles, measured_endpoint, result) VALUES
  ('COc1ccc(-c2nc3cc(C(=O)NCc4ccccc4)ccc3n2C2CCCCC2)cc1', 'growth', '91% (inactive)'),
  ('Fc1cccc(Oc2ccc(Nc3ncnc4ccc(OCCCN5CCOCC5)cc34)cc2Cl)c1', 'growth', '71.6% (inactive)'),
  ('COC(=O)c1nc(-c2ccc(C)cc2)oc1S(=O)(=O)c1cccc(OC)c1', 'growth', '92.5% (inactive)');

Look up growth for this compound: "CCn1cc(C(=O)NNC(=S)Nc2ccc(C)cc2)c(=O)c2ccc(C)nc21"
91.3% (inactive)

Given the entry "COc1cc2ncnc(Nc3ccc(S(=O)(=O)Nc4cc(C)on4)cc3)c2cc1OCCCN1CCN(c2ccc(F)cc2)CC1" , report its measured growth.
91% (inactive)

* * *

- Test system: NCI-H460 lung
- Assay method text: NCI-60 one-dose screen, 48 h (100 = growth as untreated, 0 = no growth, -100 = all killed)
- Condition details: 10 µM unless noted
The panel holds about 83,000 compounds, 20% with a hit somewhere; the sample as a whole holds those more often.
Lab note: compare growth against 7%. Equal or greater, write T. Smaller, write F.

INSERT INTO measurements (molecule, category_label) VALUES
  ('COc1ccc2c(c1)CC[C@H](O)/C2=C/c1cc(OC)c(OC)c(OC)c1', 'F'),
  ('COc1ccc(CN2c3ccccc3Sc3ccccc32)cc1F', 'F'),
  ('CC(C)=CCCC(C)c1ccc(C)c2c1OCN(CCCCCO)C2 (stereo unspecified)', 'T');

Kindly determine if growth recorded for "CCCCNCCCCCNc1cc(OC)cc2cccnc12" is above or exactly 7%.
T

Given the entry "Nc1nc2ccc(-c3nc4ccc5[nH]ncc5c4c4c3CCCC4)cc2s1" , answer whether its growth meets or surpasses 7%.
T
